- assayed-target: T1, mouse TfR ectodomain fused to a mouse IgG1 Fc fragment (mouse, UniProt Q62351 89-763)
- T1 construct: extracellular domain; not shown: mouse IgG1 Fc fragment
- T1 sequence (Q62351 89-763): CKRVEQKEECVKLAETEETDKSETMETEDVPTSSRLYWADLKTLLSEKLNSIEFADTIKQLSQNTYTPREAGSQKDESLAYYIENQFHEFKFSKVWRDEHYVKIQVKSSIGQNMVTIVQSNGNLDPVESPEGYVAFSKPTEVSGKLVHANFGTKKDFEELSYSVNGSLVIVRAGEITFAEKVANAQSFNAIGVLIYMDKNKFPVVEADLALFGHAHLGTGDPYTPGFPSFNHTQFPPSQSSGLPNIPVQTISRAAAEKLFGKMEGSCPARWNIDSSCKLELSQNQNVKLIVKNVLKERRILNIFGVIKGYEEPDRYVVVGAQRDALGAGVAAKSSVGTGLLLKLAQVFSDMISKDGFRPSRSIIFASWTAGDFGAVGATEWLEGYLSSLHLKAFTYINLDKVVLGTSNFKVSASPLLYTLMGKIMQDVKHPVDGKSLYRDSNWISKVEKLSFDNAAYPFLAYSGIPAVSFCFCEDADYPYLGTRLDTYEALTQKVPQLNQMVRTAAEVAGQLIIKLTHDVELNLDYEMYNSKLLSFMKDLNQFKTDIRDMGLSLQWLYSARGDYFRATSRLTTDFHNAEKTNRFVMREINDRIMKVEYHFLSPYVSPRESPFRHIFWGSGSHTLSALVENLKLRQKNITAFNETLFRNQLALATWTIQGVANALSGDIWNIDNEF
- run-description: SPR, at equilibrium
Assign pKd to each entry below.
Answers are plain numbers, as −log10 of the molar value.

Past entries and their recorded results:
VHH B (B8) (VHH) VHH: EVQLVESGGGVVQPGGSLRLSCAASGEIFSINFMRWYRQAPGKQREWVAGFTRDGSTNYPDSAKGRFTISRDNAKNTVYLQIDSLKPEDTAVYYCYMLDTWGQGTQVTVSS | 7.43
VHH A9 (C5^V9) (VHH) VHH: EVQLVESGGGVVQPGGSLKLSCVASGTDFSINFIRWYRQAPGKQREFVAGFTATGNTNYADSMKGRFTISRDNTKNAVYLQIDSLKPEDTAVYYCYMLDAWGQGTQVTVSS | 7.39
VHH A13 (C5^V13) (VHH) VHH: EVQLVESGGGVVQPGGSLKLSCVASGTDFSINFIRWYRQAPGKQREFVAGFSATGNTNYADSMKGRFTISRDNTKNAVYLQIDSLKPEDTAVYYCYMLDKWGQGTQVTVSS | 6.95

Next:
Prompt line: Item VHH A15 (C5^V15) (VHH) VHH: EVQLVESGGGVVQPGGSLKLSCVASGTDFSINFIRWYRQAPGKQREFVAGFTATGNTNYADSMKGRFTISRDNTKNAVYLQIDSLKPEDTAVYYCFMLDKWGQGTQVTVSS : provide pKd
Response line: 7.21

Hey, just so you know, these numbers are from patent US20230414780A1.
